Taken from patent US10633338B2.

# subject-of-test: androgen receptor (AR) (Homo sapiens, UniProt P10275, T878A)
# Construct: stably transfected eGFP-expressing LNCaP human prostate cancer cells (LN-ARR2PB-eGFP) containing an androgen responsive probasin-derived promoter; endogenous in cells; host or cells: LNCaP (LN-ARR2PB-eGFP)
# Sequence (P10275 1-920 T878A): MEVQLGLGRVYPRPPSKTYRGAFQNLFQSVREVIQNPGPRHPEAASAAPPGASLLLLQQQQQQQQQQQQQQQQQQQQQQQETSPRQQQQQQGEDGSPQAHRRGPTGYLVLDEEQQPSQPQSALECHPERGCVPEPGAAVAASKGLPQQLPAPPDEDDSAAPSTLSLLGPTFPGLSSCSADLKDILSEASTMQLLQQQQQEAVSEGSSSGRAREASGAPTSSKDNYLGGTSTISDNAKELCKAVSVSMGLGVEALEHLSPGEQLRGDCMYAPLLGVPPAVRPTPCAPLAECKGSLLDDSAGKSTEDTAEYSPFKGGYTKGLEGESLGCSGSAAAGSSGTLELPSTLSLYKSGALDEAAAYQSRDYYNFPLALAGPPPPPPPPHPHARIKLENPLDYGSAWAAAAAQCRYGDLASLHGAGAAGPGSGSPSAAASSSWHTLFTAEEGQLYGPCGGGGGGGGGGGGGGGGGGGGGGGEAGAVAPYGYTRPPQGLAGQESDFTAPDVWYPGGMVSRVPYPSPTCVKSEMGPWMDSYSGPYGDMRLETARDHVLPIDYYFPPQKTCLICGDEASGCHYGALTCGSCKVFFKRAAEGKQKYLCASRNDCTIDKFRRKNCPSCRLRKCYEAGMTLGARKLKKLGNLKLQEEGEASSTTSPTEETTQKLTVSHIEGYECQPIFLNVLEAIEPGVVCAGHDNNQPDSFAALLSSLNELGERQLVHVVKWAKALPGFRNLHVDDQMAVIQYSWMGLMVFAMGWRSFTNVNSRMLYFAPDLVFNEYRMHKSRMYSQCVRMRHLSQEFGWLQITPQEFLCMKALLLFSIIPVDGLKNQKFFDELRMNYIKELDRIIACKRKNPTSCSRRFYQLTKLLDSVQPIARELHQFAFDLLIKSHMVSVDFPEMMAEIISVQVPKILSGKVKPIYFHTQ
# assay-overview: eGFP cellular AR transcription assay
# Format: cell-based
# measurement-setup: LN-ARR2PBeGFP LNCaP cells, 0.1 nM R1881, 3 days incubation; read-out: eGFP IC50
pIC50: −log10 of the molar value.
property: pIC50

Please review the entries below; each comes with its answer.
{"molecule": "Oc1cc2ccccc2nc1-c1c[nH]c2cc(F)c(F)cc12", "pIC50": 5.31}
{"molecule": "O=C(Nc1n[nH]c2ccc(Br)cc12)c1cc(Br)ccc1O", "pIC50": 4.93}
{"molecule": "Brc1ccc2c(c1)NC(c1c[nH]c3ccc(Br)cc13)C2 (stereo not shown)", "pIC50": 5.39}
{"molecule": "Cc1cccc2c(-c3ccc4cc(F)ccc4n3)c[nH]c12", "pIC50": 6.25}
{"molecule": "Cc1ccccc1CSc1c(C)[nH]c2ccccc12 [Compound 13412]", "pIC50": 6.05}
{"molecule": "CC1(C)c2ccccc2NC1c1c[nH]c2ccc(Cl)cc12 (stereo not shown)", "pIC50": 5.47}
{"molecule": "Cc1ccc(C)c2c(-c3ccc4ccccc4n3)c[nH]c12", "pIC50": 5.90}
{"molecule": "Cc1cccc2c(-c3cnc4ccccc4n3)c[nH]c12 [Compound 13699]", "pIC50": 7.14}
{"molecule": "c1ccc2c(c1)C[C@@H](c1c[nH]c3ccccc13)N2", "pIC50": 6.32}
{"molecule": "Cc1c(F)ccc2c(-c3nc4ccccc4cc3O)c[nH]c12", "pIC50": 5.45}

1: Cc1[nH]c2ccccc2c1/N=N/c1ccccc1C(F)(F)F
2: Fc1ccc2nc(-c3c[nH]c4cc(F)c(F)cc34)ccc2c1
3: NC(=O)c1ccccc1/N=C/c1c[nH]c2ccccc12
4: c1ccc(COc2ccc3c(C4Nc5ccccc5C45CCCCC5)c[nH]c3c2)cc1 (stereo not shown)
Order the records by pIC50, with each subsequent value no larger than the one before. Provide the ranking by listing each label in its place in the requested order.
3, 2, 1, 4
(3: 6.40, 2: 5.95, 1: 5.43, 4: 4.93)
